biological target: PEDV Mpro (main protease, 3CL protease) (Porcine epidemic diarrhea virus CV777, UniProt P0C6Y4); construct: mature nsp5 main protease cut from replicase polyprotein 1a/1ab; recombinant N-terminal GST fusion, GST tag removed with PreScission protease; expression as in Li et al., 2020; PDB 4XFQ only for docking; assay: FRET inhibition assay
Sequence (P0C6Y4 2998-3299 limits assumed): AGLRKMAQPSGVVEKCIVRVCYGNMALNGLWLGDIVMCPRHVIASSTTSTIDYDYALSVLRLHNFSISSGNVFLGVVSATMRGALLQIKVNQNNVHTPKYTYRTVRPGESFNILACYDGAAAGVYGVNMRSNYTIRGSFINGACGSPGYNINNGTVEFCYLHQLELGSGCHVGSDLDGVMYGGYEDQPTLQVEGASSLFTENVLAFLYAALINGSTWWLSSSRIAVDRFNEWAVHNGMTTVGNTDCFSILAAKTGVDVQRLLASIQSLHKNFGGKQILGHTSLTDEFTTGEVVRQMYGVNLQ
value.kind: IC50 (µM)

INSERT INTO measurements (smiles_data, obs_value) VALUES
  ('COc1c(O)cc(O)c2c(=O)cc(-c3ccccc3)oc12', 19.4);

----------
target: PEDV Mpro (main protease, 3CL protease) (Porcine epidemic diarrhea virus CV777, UniProt P0C6Y4); construct: gene rep; mature nsp5 main protease cut from replicase polyprotein 1a/1ab; recombinant N-terminal GST fusion, GST tag removed with PreScission protease; expression as in Li et al., 2020; PDB 4XFQ only for docking; assay: surface plasmon resonance (OpenSPR), Mpro immobilised; type: binding; settings: read-out: KD (affinity constant)
pKd: −log10 of the molar value.
value.kind: pKd

INSERT INTO measurements (smiles_data, obs_value) VALUES
  ('COc1c(O)cc(O)c2c(=O)cc(-c3ccccc3)oc12', 4.80);
